Field: Octet binding response. Provide a value for each of the binders that follow.
Biological target: T1, Unprocessed hMPV PreF trimer (human metapneumovirus, strain B2)
T1 construct: also called Unprocessed hMPV WT PreF trimer; unprocessed hMPV PreF trimeric antigen
Experiment: BLI, mAb on anti-human Fc sensor
One number for each entry, in nm.

Worked set:
M2D08 (antibody, V domains shown, IgG) VH: QVQLVESGGGVVQPGRSLRLSCAASGFVFRFSGMHWIRQAPGKGLQWVAHISDDGSQKYYADSVTGRFAISRDNSRNTLFLEMTGLRGDDTAVYYCARGDYGVSYFLAHWGLGELVIVSS VL: EIVLTQSPATLSLSPGERATLSCRASQNIYNYLAWYQQKPGQAPRLVIYDASNRATGIPARFSGSGSETDFTLTISSLEPEDFAVYYCQQRSDWTFGQGTKLEIK    0.416
M4B11 (antibody, V domains shown, IgG) VH: QVQLVQSGTEVQTPGASVKVSCKTSGYIFTGYFMHWVRQAPGQGFEWMGWVNPYSGATTYAQKFQGRVTMTRDTSISTVYMELSRLTSDDTAIYYCAKDTSNSGPDLLEHWGQGTLVIVSS VL: EIVLTQSPATLSLSPGERATLSCRASQSISNFLVWYQRKPGQAPRLLIFDVSKRATGIPTRFSGSGSGTDFTLTISSLEPEDFAVYYCQQRSNWPPGYTFGQGTKLEIK    0.273
M2C06 (antibody, V domains shown, IgG) VH: QVQLVQSGAEVKKPGSSVKVSCRPSGGTFSNDILSWVRQAPGQRLEWMGRIIPLVNMTNIAQKFQGRLTLVADKSTAIVHLELGSLRAEDTAIYYCVRDLPSAGFPAPFDIWGQGTRVTVSA VL: EIVLTQSPGSLSLSPGARATVSCRASQSLNSASLVWYQQRVGQAPRLLMFGASNRATGIPDRFSGSGSGTDFTLTISRLEPEDFAVYYCQQYAFSPPTFGQGTKVEIK    0.408

Give Octet binding response for all binders that follow.
1. M2E05 (antibody, V domains shown, IgG) VH: QVQLQESGPGLVKPSEILSLTCTVSRYSINSGYYWGWIRQPPGKGLEWVGCVSHAGVTYYNPSLESRVAVSLDTSKNQFSLKMTSVSAADTAMYYCAASSNWHNALEYWGQGTLVAVSS VL: QSVLTQPPSASGTPGQSVTISCSGSSSNMGINWVYWYQQLPGTAPKLLIYRNSQRPSGVPDRFSGSQSGTSASLAISGLRSEDEGHYYCAVWDDVVSGRLFGGGTKLTVL
2. M3A07 (antibody, V domains shown, IgG) VH: QVQLVQSGAEVQKPGASVKVSCKASGYTFTRHAIHWVRQAPGQRLEWIGWVHGGNENTKYSQKLQGRVTITRDTSASTAYMELNSLRYEDTAVYYCATAMPGAFNMWGQGTVVTVSS VL: DIQMTQSPSTLSASVGDRVTITCRASQSISSWVAWYQQKPGKAPKLLIYKAFSLETGVPSRFSGSGSGTEFTLTISSLQPDDCATYYCQQYGSFSEFTFGQGTKLEIK

0.426
0.324
